TGT: T1, I-SceI homing endonuclease (UniProt P03882 P03882:1-235)
T1 sequence: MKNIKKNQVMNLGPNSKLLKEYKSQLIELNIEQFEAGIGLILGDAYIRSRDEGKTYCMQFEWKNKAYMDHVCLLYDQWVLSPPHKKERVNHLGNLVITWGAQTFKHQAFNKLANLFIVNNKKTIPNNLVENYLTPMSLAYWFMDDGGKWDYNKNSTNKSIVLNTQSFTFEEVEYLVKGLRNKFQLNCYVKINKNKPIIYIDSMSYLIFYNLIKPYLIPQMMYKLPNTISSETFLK
ASSAY_SUMMARY: capillary electrophoresis with LIF; binding affinity about 52.49 uM; binding also seen by EMSA
CONDITIONS: tags: provided by F. Gimble (Purdue University), dialyzed; label: FAM
MEASURED_PROPERTY: pKd
Give bare numbers, as −log10 of the molar value.

Check the records and state pKd for TGAAGGCCAAAACGGCTGAATCGATAGT (ssDNA) [A4]
4.28
